MEASURED TARGET: rat CB2 (Rattus norvegicus)
Sequence (Q9QZN9 1-360): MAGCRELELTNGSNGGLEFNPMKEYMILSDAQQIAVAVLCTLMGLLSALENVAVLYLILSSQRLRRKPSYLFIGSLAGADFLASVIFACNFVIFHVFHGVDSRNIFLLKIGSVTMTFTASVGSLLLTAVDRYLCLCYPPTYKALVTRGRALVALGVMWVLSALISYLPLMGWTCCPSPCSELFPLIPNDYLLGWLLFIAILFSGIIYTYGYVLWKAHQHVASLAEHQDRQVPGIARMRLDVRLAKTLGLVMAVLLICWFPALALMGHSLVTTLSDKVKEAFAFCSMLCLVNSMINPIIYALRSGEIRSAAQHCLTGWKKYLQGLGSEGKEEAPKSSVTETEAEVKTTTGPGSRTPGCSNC
EXPERIMENT DESCRIPTION: rat CB2 radioligand binding assay ([3H]CP 55,940 competition)
Parameters: expressed in transfected cells; host or cells: HEK293
SETTINGS: rat CB2 (Ki, nM), HEK293 membranes, 0.5 nM [3H]CP 55,940
Lab note: anything with Ki below 8 nM is marked true (1); values at 8 nM or higher are marked false (0).

molecule="Cn1c(C(C)(C)C)c/c(=N\\C(=O)c2cc(C(F)(F)F)ccc2OCc2cnccn2)n1C[C@H]1CCCO1 [Example 40]" class_name="false (0)"
molecule="CCCCn1nc(C(C)(C)C)s/c1=N\\C(=O)c1cc(C(F)(F)F)ccc1OC[C@@H]1CCCN1C [Example 29]" class_name="false (0)"
molecule="Cn1c(C(C)(C)C)c/c(=N\\C(=O)c2cc(C(F)(F)F)ccc2OC[C@@H]2CCCCN2)n1C[C@H]1CCCO1 [Example 88]" class_name="true (1)"
molecule="Cn1c(C(C)(C)C)c/c(=N\\C(=O)c2cc(C(F)(F)F)ccc2OCc2cccnc2)n1C[C@H]1CCCO1 [Example 43]" class_name="false (0)"
molecule="CN1CC[C@H]1COc1ccc(C(F)(F)F)cc1C(=O)/N=c1\\oc(C(C)(C)C)cn1C[C@H]1CCCO1 [Example 74]" class_name="false (0)"

Here's the next entry for you.
[Q] # TODO verify Ki < 8 nM strictly for this molecule: Cn1c(C(C)(C)C)c/c(=N\C(=O)c2cc(C(F)(F)F)ccc2NC[C@H]2CCCO2)n1C[C@H]1CCCO1 [Example 23]
[A] true (1)
